tested on: Trypanosoma cruzi; assay: Antitrypanosomal activity against Trypanosoma cruzi Y epimastigote form after 11 days by Trypan blue exclusion method; type: functional, organism-based; conditions: 264 h
pIC50: −log10 of the molar value.
Below, each entry is listed alongside its reported pIC50.
attribute-measured: pIC50

- compound: "O=C1CSC(N/N=C\\CSc2ccc(Cl)cc2)=N1"
  tested-on: "Trypanosoma cruzi"
  number: 4.36
- compound: "C/C(CSc1ccccc1)=N/NC1=NC(=O)C(C)S1 (stereo not given)"
  tested-on: "Trypanosoma cruzi"
  number: 4.08
- compound: "O=C1CSC(N/N=C\\CSc2ccccc2)=N1"
  tested-on: "Trypanosoma cruzi"
  number: 4.46
- compound: "O=C(Cn1ccnc1[N+](=O)[O-])NCc1ccccc1"
  tested-on: "Trypanosoma cruzi"
  number: 5.18
- compound: "Cc1ccc(SC/C=N\\NC2=NC(=O)CS2)cc1"
  tested-on: "Trypanosoma cruzi"
  number: 4.03
- compound: "O=C1CSC(N/N=C\\CCSc2ccccc2)=N1"
  tested-on: "Trypanosoma cruzi"
  number: 5.54
- compound: "CC1CS(=O)(=O)CCN1/N=C/c1ccc([N+](=O)[O-])o1 (stereo not given)"
  tested-on: "Trypanosoma cruzi"
  number: 5.72
- compound: "Cc1ccc(SC/C=N\\NC2=NC(=O)C(C)S2)cc1 (stereo not given)"
  tested-on: "Trypanosoma cruzi"
  number: 4.20
- compound: "O=C1CSC(N/N=C\\CSc2ccc(Br)cc2)=N1"
  tested-on: "Trypanosoma cruzi"
  number: 4.37
- compound: "CCC1SC(N/N=C\\CSc2ccccc2)=NC1=O (stereo not given)"
  tested-on: "Trypanosoma cruzi"
  number: 6.52

---

Below, each entry is listed alongside its reported Activity.
test: Cytotoxicity against BALB/c mouse splenocytes after 24 hrs by [3H]thymidine incorporation assay; type: cell-based; details: splenocyte
attribute-measured: Activity

- compound: "O=C1CSC(N/N=C\\CCSc2ccccc2)=N1"
  result: "> 100 µg/mL"
- compound: "Cc1ccc(SC/C=N\\NC2=NC(=O)CS2)cc1"
  result: "> 100 µg/mL"
- compound: "CCC1SC(N/N=C\\CSc2ccccc2)=NC1=O (stereo not given)"
  result: "> 100 µg/mL"
- compound: "O=C1CSC(N/N=C\\CSc2ccccc2)=N1"
  result: "> 100 µg/mL"
- compound: "C/C(CSc1ccccc1)=N/NC1=NC(=O)C(C)S1 (stereo not given)"
  result: "> 100 µg/mL"
- compound: "Cc1ccc(SC/C=N\\NC2=NC(=O)C(C)S2)cc1 (stereo not given)"
  result: "> 100 µg/mL"
- compound: "CC1CS(=O)(=O)CCN1/N=C/c1ccc([N+](=O)[O-])o1 (stereo not given)"
  result: "1 µg/mL"
- compound: "O=C1CSC(N/N=C\\CSc2ccc(Cl)cc2)=N1"
  result: "> 100 µg/mL"
- compound: "O=C(Cn1ccnc1[N+](=O)[O-])NCc1ccccc1"
  result: "25 µg/mL"
- compound: "O=C1CSC(N/N=C\\CSc2ccc(Br)cc2)=N1"
  result: "> 100 µg/mL"
